Data credit: patent US20060257938A1

Measured DR/DR LNA values are reported for all entries that follow.
# run.description: Probe fluorescence ratio response to linolenic acid relative to ADIFAB2
# Format: binding
# condition.summary: response relative to ADIFAB2
# Source text: In an alternate preferred embodiment, the protein is rI-FABP that has Ala substituted for Leu at position 72 (rI-FABP-L72A) with the resulting probe named ADIFAB2. […] ADIFAB2 also has an altered spectral response, making it especially useful for measurements of FFAu in blood samples (Apple et al, Clinical Proteomics, (2004) 1:41-44, U.S. patent application Ser. No. 10/670,958). […] The baseline value for this ratio, measured in the absence of analyte, is designated R0. […]
Answer using only a numeral; do not append any unit.

Examples with answers:
molecule: 62H, 72A (protein, listed as Rattus norvegicus, PEPTIDE (1)...(131) wild-type rat intestinal fatty acid binding protein) AFDGTWKVDRNENYEKFMEKMGINVVKRKLGAHDNLKLTITQEGNKFTVKESSNFRNIDVVHELGVDFAYSAADGTELTGTWTMEGNKLVGKFKRVDNGKELIAVREISGNELIQTYTYEGVEAKRIFKKE
DR/DR LNA: 1.44

molecule: 14A, 72A (protein, listed as Rattus norvegicus, PEPTIDE (1)...(131) wild-type rat intestinal fatty acid binding protein) AFDGTWKVDRNENAEKFMEKMGINVVKRKLGAHDNLKLTITQEGNKFTVKESSNFRNIDVVFELGVDFAYSAADGTELTGTWTMEGNKLVGKFKRVDNGKELIAVREISGNELIQTYTYEGVEAKRIFKKE
DR/DR LNA: 0.56

Attention now turns to another entry.
Challenge: So what's the measured DR/DR LNA for this one? 72K (protein, listed as Rattus norvegicus, PEPTIDE (1)...(131) wild-type rat intestinal fatty acid binding protein) AFDGTWKVDRNENYEKFMEKMGINVVKRKLGAHDNLKLTITQEGNKFTVKESSNFRNIDVVFELGVDFAYSKADGTELTGTWTMEGNKLVGKFKRVDNGKELIAVREISGNELIQTYTYEGVEAKRIFKKE
Response given: 0.31
